# measurementDescription: Ocular distribution of CDO in rats, single dose topical ocular vs. oral
# Format: in vivo, Sprague Dawley (SD) rat
# conditionLabel: Sprague-Dawley, optic nerve; rat, topical eye 100 mg/ml (eye drop of 10 μl) = 1 mg, 0.25 h; read-out: CDO concentrations Optic nerve

compound | concentration at 0.25 h / ng/g
O=S(=O)(O)c1cc(O)ccc1O [CDO, Calcium dobesilate monohydrate] | 13700

----------
# measurementDescription: Ocular distribution of CDO in rats, single dose topical ocular vs. oral
# Assay type: in vivo, Sprague Dawley (SD) rat
# conditionLabel: Sprague Dawley, cornea; rat, topical eye 10 mg/ml (eye drop of 10 μl) = 0.1 mg, 0.25 h; read-out: CDO concentrations Cornea
# Experimental: In Sprague Dawley (SD) rat, weighing approximately 200 g, CDO was administered by topical ocular instillation (10 μl/eye) at 10 mg/ml (composition 2 of Example 1), at 100 mg/ml (composition 5 of Example 1) or by oral gavage at 50 mg/kg, at 200 mg/kg or at 750 mg/kg in aqueous solution (from compositions 1, 3 and 4, respectively, of Example 1). […] Bioanalysis of CDO was performed depending on the type of matrix. […] After centrifugation, samples were analyzed by UPLC-MS/MS. […]

molecule | concentration at 0.25 h
O=S(=O)(O)c1cc(O)ccc1O [CDO, Calcium dobesilate monohydrate] | 4610 ng/g

----------
# measurementDescription: Ocular distribution of CDO in rabbits, single dose topical ocular vs. oral
# Format: in vivo, New Zealand White rabbit
# conditionLabel: New Zealand White, optic nerve; rabbit, Oral 25 mg/Kg = 45 mg, 1 h; read-out: CDO μg/g tissue Optic nerve
parameterMeasured: concentration at 1 h

molecule | parameterMeasured | val
O=S(=O)(O)c1cc(O)ccc1O [CDO, Calcium dobesilate monohydrate] | concentration at 1 h | 1.61 µg/g

----------
# measurementDescription: Ocular distribution of CDO in rats, single dose topical ocular vs. oral
# Assay type: in vivo, Sprague Dawley (SD) rat
# conditionLabel: Sprague Dawley, cornea; rat, topical eye 10 mg/ml (eye drop of 10 μl) = 0.1 mg, 3 h; read-out: CDO concentrations Cornea
parameterMeasured: concentration at 3 h

compound | parameterMeasured | val
O=S(=O)(O)c1cc(O)ccc1O [CDO, Calcium dobesilate monohydrate] | concentration at 3 h | 1990 ng/g

----------
# measurementDescription: Ocular distribution of CDO in rats, single dose topical ocular vs. oral
# Assay type: in vivo, Sprague Dawley (SD) rat
# conditionLabel: Sprague Dawley, sclera; rat, topical eye 100 mg/ml (eye drop of 10 μl) = 1 mg, 1 h; read-out: CDO concentrations Sclera

molecule | outputUnit | concentration at 1 h
O=S(=O)(O)c1cc(O)ccc1O [CDO, Calcium dobesilate monohydrate] | ng/g | 1140

----------
# measurementDescription: Ocular distribution of CDO in rabbits, single dose topical ocular vs. oral
# Assay type: in vivo, New Zealand White rabbit
# conditionLabel: New Zealand White, optic nerve; rabbit, Topical eye administration 100 mg/ml = 3.3 mg, 0.25 h; read-out: CDO μg/g tissue Optic nerve

compound | concentration at 0.25 h
O=S(=O)(O)c1cc(O)ccc1O [CDO, Calcium dobesilate monohydrate] | 14.4 µg/g

----------
# measurementDescription: Ocular distribution of CDO in rats, single dose topical ocular vs. oral
# Type: in vivo, Sprague Dawley (SD) rat
# conditionLabel: Sprague-Dawley, optic nerve; rat, topical eye 100 mg/ml (eye drop of 10 μl) = 1 mg, 6 h; read-out: CDO concentrations Optic nerve
parameterMeasured: concentration at 6 h

compound | parameterMeasured | val
O=S(=O)(O)c1cc(O)ccc1O [CDO, Calcium dobesilate monohydrate] | concentration at 6 h | 2650 ng/g
